Hi there, I'd appreciate the recorded normalized growth for every entry that follows.
Procedure Details: chemical genetic growth profiling, strain panel (AID 1159580);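 note: tested at 20 µM; growth read once vehicle control cultures reached saturation at 30 °C; 1 = growth at the plate median or of vehicle wells; lower values mean less growth of the strain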
Condition Info: S. cerevisiae deletion strains, growth OD, locus YHR079C, strain IRE1 (second series), stronger effect = lower value
Among all 5,500 compounds or so, about 2,000 (36%) were called active. Not shown: some 18% with an inconclusive outcome. Some of the results follow.
No unit in the answer, please; the number alone is enough.

**Query** Give its normalized growth value. Item: C/C1=C/CC(C)(C)/C=C/C/C(C)=C/CC1
**Result** 1.01

**Query** Now give it for NCC(=O)c1ccccc1 too.
**Result** 0.996

**Query** Now give it for CC(=O)OCC(=O)[C@@]1(O)[C@H](C)CC2C3CCC4=CC(=O)C=C[C@]4(C)[C@@]3(F)[C@@H](O)C[C@@]21C (stereo not given in full) too.
**Result** 0.996

**Query** Now give it for COc1ccc([C@@H]2CC(=O)c3c(O)cc(O[C@@H]4O[C@H](CO[C@H]5O[C@@H](C)[C@H](O)[C@@H](O)[C@H]5O)[C@@H](O)[C@H](O)[C@H]4O)cc3O2)cc1O too.
**Result** 0.983

**Query** Now give it for CC12CCC(O)CC1CCC1C2[C@H](O)CC2(C)C(C3=CC(=O)OC3)CCC12O (stereo not given in full) too.
**Result** 0.992

**Query** Now give it for C/C1=C\CC(C)(C)/C=C/CC2(C)OC2CC1 (stereo not given) too.
**Result** 1.01

**Query** Now give it for NC(=O)NC(=O)Cc1ccccc1 too.
**Result** 1

**Query** Now give it for O=C(OCc1ccccc1)c1ccccc1 too.
**Result** 0.969

**Query** Now give it for CCCSc1ccc2nc(NC(=O)OC)[nH]c2c1 too.
**Result** 0.942

**Query** Now give it for CCCc1c(OCCCCc2nn[nH]n2)ccc(C(C)=O)c1O too.
**Result** 0.992
